system: BT-549 breast; experiment: NCI tumour cell line growth inhibition, 48 h
Use 20 µM as the dividing line for TGI, with the line itself on the True side and lower values as False.

Some solved cases for reference:
{"columns": ["compound", "measurement_target", "answer_label"],
 "data": [
  ["Cc1cc2c3ccccc3ccc2[n+]2ccccc12", "BT-549 breast", "False"],
  ["COc1ccc(N2C(=O)c3cccnc3S2(=O)=O)cc1", "BT-549 breast", "True"],
  ["CO/N=C(/COc1c(-c2ccccc2)oc2ccccc2c1=O)c1ccc(OC)cc1", "BT-549 breast", "True"],
  ["O=C1CSC(c2ccc(Cl)cc2)N1c1ccc(-c2ccc(-n3c(-c4ccccc4)nc4ccccc4c3=O)cc2)cc1 (configuration not stated)", "BT-549 breast", "True"],
  ["COc1ccccc1N1C(=O)CS(=O)(=O)C1c1cccc(Oc2ccccc2)c1 (configuration not stated)", "BT-549 breast", "True"],
  ["C[C@H]1[C@H](C)CC[C@]2(C(=O)O)CC[C@]3(C)C(=CC[C@@H]4[C@@]5(C)CC[C@H](OC(=O)/C=C/c6ccc(O)cc6)C(C)(C)[C@@H]5CC[C@]43C)[C@H]12", "BT-549 breast", "False"],
  ["CC(CO)(CO)Nc1ncnc2ccccc12", "BT-549 breast", "True"],
  ["NNc1ccccc1Cl", "BT-549 breast", "True"],
  ["CSCCCNC(=O)c1csc(-c2csc(CCN)n2)n1", "BT-549 breast", "True"],
  ["O=C(O)c1ccc(NCc2nc3cc4ccccc4cc3[nH]2)cc1", "BT-549 breast", "True"]
]}

Determine whether this compound has TGI no lower than 20 µM: COc1ccc([C@H]2C=C(c3cc(F)c(Cl)cc3Cl)NC(=S)N2)cc1
True

Determine whether this compound has TGI no lower than 20 µM: CCCN(CCC)c1cc2c(cc1F)c(=O)c(C(=O)O)cn2-c1ccc(N2CCN(C)CC2)cn1
True

Determine whether this compound has TGI no lower than 20 µM: COc1ccc2c(c1)CCCN1Cc3cc(OC)c(OC)cc3CC21 (configuration not stated)
True

Determine whether this compound has TGI no lower than 20 µM: N#CSCc1c(Cl)cccc1Cl
False

Determine whether this compound has TGI no lower than 20 µM: Cn1c(=O)c2c(nc(N)n2C2OC(CO)C(O)C2O)n(C)c1=O (configuration not stated)
True

Determine whether this compound has TGI no lower than 20 µM: O=C(O)CCCSc1nc2ccccc2s1
True

Determine whether this compound has TGI no lower than 20 µM: O=C(Nc1nnc(-c2c(Cl)c(Cl)c(Cl)c(Cl)c2-c2nc3cc(C(=O)c4ccccc4)ccc3[nH]2)o1)c1ccccc1
True

Determine whether this compound has TGI no lower than 20 µM: Nc1ccc2cc3[nH]c4cc(N)ccc4c3nc2c1
False

Determine whether this compound has TGI no lower than 20 µM: CC(C)=C[C@@H]1C[C@H](C)c2c(O)cc(C)c3c2C1=C(C)C(=O)C3=O
True

Determine whether this compound has TGI no lower than 20 µM: O=C1C[C@@H](Sc2ccccc2)C2(OCCO2)[C@H]2ON3CCC[C@@H]3[C@@H]12
False

----------
system: KM12 colon; experiment: NCI tumour cell line growth inhibition, 48 h
Reported TGI values are given for each entry in this list.

// known answers, use as guide
{"columns": ["compound", "TGI"],
 "data": [
  ["CC(CO)(CO)Nc1ncnc2ccccc12", "> 100 µM"],
  ["CC(C)c1c(O[Si](C(C)C)(C(C)C)C(C)C)c2c3c(ccc4c3c1OC4(C)C)C(C)CC2 (stereo not given)", "> 100 µM"],
  ["Cc1ccccc1-c1c(N)nc(N)nc1C(=O)Nc1nccs1", "> 100 µM"],
  ["COc1cc(C(=O)C/C(CCC(=O)Nc2ccc(Cl)cc2Cl)=N/NC(=O)C(N)=O)ccc1O", "> 100 µM"],
  ["COc1ccc(OC)c(C#Cc2ccc(OC)c(C(=O)NCCc3ccc(F)cc3)c2)c1", "> 100 µM"]
]}

According to the records, this compound CCN(CC)CCn1c2cc3c(cc2c(=O)c2cccnc21)OCO3 displays TGI of > 10 µM

According to the records, this compound O=C(Nc1nnc(-c2c(Cl)c(Cl)c(Cl)c(Cl)c2-c2nc3cc(C(=O)c4ccccc4)ccc3[nH]2)o1)c1ccccc1 displays TGI of > 100 µM

According to the records, this compound Cc1c2cccc-2ccc2c1[nH]c1ccc(Br)cc12 displays TGI of 7.08 µM

According to the records, this compound C#C[C@@]1(O)[C@@H](CO)O[C@@H](n2ccc3c(N)ncnc32)[C@@H]1O displays TGI of 10.9 µM

According to the records, this compound Cc1ccc2c(c1)SC(c1cc3c(cc1Br)OCO3)S2 (stereo not given) displays TGI of > 31.6 µM
